Target: Cholinesterase (Equus caballus)
Experiment: Inhibition of equine serum BuChE using acetylthiocholine iodide as substrate by Ellman's method
For each record, write down the corresponding pIC50.
pIC50 field: float, defined as -log10 of concentration (mol/L).

INPUT: What value of pIC50 has been recorded for this entry: COc1cccc2cc(C(=O)/C=C/c3cc[n+](Cc4cccc(Cl)c4)cc3)c(=O)oc12.[Cl-]
OUTPUT: 6.25

INPUT: Could you tell me which pIC50 is on file for COc1cccc2cc(C(=O)/C=C/c3cc[n+](Cc4ccc(CCl)cc4)cc3)c(=O)oc12.[Cl-] ?
OUTPUT: 4.82

INPUT: Which measured pIC50 value corresponds to COc1cccc2cc(C(=O)/C=C/c3cc[n+](Cc4cccc(F)c4)cc3)c(=O)oc12.[Cl-] ?
OUTPUT: 5.68

INPUT: Quick check: pIC50 of COc1cccc2cc(C(=O)/C=C/c3cc[n+](Cc4ccccc4F)cc3)c(=O)oc12.[Br-] ?
OUTPUT: 6.48

INPUT: I would be grateful if you could share the reported pIC50 for COc1cccc2cc(C(=O)/C=C/c3cc[n+](Cc4ccc(C)cc4)cc3)c(=O)oc12.[Cl-] .
OUTPUT: 4.57

INPUT: Would you kindly share the measured pIC50 for COc1cccc2cc(C(=O)/C=C/c3cc[n+](Cc4cccc(C)c4)cc3)c(=O)oc12.[Cl-] ?
OUTPUT: 4.95

INPUT: Which pIC50 value belongs to O=C(/C=C/c1cc[n+](Cc2ccc(F)cc2)cc1)c1cc2cc(Br)ccc2oc1=O.[Cl-] ?
OUTPUT: 6.31

INPUT: Please report the recorded pIC50 for COc1cccc2cc(C(=O)/C=C/c3cc[n+](Cc4ccc(Cl)c(Cl)c4)cc3)c(=O)oc12.[Cl-] .
OUTPUT: 5.24

INPUT: What does the record list as pIC50 for COc1cccc2cc(C(=O)/C=C/c3cc[n+](Cc4cccc(Cl)c4Cl)cc3)c(=O)oc12.[Cl-] ?
OUTPUT: 5.17

----------
measure: pIC50
When answering, recall that pIC50 equals minus log10 of the concentration in mol/L, and write that number alone.

INPUT: Write down the reported pIC50 of O=C(/C=C/c1cc[n+](Cc2ccc(F)cc2)cc1)c1cc2cc(Br)ccc2oc1=O.[Cl-] , test system: Acetylcholinesterase (Electrophorus electricus).
Sequence (O42275 whole entry): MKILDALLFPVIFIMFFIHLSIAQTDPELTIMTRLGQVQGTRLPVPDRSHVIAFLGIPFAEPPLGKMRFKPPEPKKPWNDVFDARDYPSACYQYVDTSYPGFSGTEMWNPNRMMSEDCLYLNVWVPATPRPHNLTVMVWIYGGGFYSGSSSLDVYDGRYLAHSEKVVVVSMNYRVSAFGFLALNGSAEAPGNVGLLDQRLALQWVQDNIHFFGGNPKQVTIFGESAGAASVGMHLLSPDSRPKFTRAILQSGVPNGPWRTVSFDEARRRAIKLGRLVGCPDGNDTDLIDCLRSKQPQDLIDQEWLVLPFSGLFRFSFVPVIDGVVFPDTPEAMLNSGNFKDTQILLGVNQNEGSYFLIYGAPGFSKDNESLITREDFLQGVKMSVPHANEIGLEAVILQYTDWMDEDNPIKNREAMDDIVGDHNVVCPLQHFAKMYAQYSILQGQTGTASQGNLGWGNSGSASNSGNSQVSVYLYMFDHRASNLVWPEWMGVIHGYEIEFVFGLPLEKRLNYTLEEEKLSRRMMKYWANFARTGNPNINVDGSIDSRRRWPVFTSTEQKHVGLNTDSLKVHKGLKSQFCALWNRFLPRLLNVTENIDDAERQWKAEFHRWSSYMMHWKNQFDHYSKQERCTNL
OUTPUT: 9.34

INPUT: Given the entry COc1cccc2cc(C(=O)/C=C/c3cc[n+](Cc4ccccc4Cl)cc3)c(=O)oc12.[Cl-] , what pIC50 was observed with Acetylcholinesterase (Electrophorus electricus)?
OUTPUT: 9.34

INPUT: Which measured pIC50 belongs to O=C(/C=C/c1cc[n+](Cc2ccccc2F)cc1)c1cc2cc(Br)ccc2oc1=O.[Cl-] , tested on Acetylcholinesterase (Electrophorus electricus)?
OUTPUT: 9.96

INPUT: What is its pIC50 for Acetylcholinesterase (Electrophorus electricus)? Entry: COc1cccc2cc(C(=O)/C=C/c3cc[n+](Cc4cccc(F)c4)cc3)c(=O)oc12.[Cl-]
OUTPUT: 9.33

INPUT: What value of pIC50 on Acetylcholinesterase (Electrophorus electricus) does COc1cccc2cc(C(=O)/C=C/c3cc[n+](Cc4cccc(C)c4)cc3)c(=O)oc12.[Cl-] have?
OUTPUT: 6.10

----------
Test: Selectivity ratio of IC50 for equine serum BuChE to IC50 for electric eel AChE
Criterion: Ratio IC50 strictly less than 10. Met: label 1. Not met: label 0.

INPUT: Please determine if COc1cccc2cc(C(=O)/C=C/c3cc[n+](Cc4cccc(Cl)c4Cl)cc3)c(=O)oc12.[Cl-] is below 10 in terms of Ratio IC50.
OUTPUT: label 0

INPUT: # TODO verify Ratio IC50 < 10 strictly for this compound: COc1cccc2cc(C(=O)/C=C/c3cc[n+](Cc4ccccc4Cl)cc3)c(=O)oc12.[Cl-]
OUTPUT: label 0

INPUT: # TODO verify Ratio IC50 < 10 strictly for this compound: COc1cccc2cc(C(=O)/C=C/c3cc[n+](Cc4cccc(C#N)c4)cc3)c(=O)oc12.[Br-]
OUTPUT: label 0

INPUT: Criterion: Ratio IC50 strictly below 10. Is it met by COc1cccc2cc(C(=O)/C=C/c3cc[n+](Cc4cccc(F)c4)cc3)c(=O)oc12.[Cl-] ?
OUTPUT: label 0

INPUT: For O=C(/C=C/c1cc[n+](Cc2ccccc2F)cc1)c1cc2ccccc2oc1=O.[Cl-] , is the recorded Ratio IC50 below the cut-off of 10?
OUTPUT: label 1

----------
Molecular target: Acetylcholinesterase (Electrophorus electricus)
measure: pIC50
Scale: negative log10 of molar concentration, which is what pIC50 denotes.

INPUT: Hello, I am looking for reported pIC50 with Acetylcholinesterase (Electrophorus electricus) for COc1cccc2cc(C(=O)/C=C/c3cc[n+](Cc4ccc(CCl)cc4)cc3)c(=O)oc12.[Cl-] . Could you help?
OUTPUT: 5.80

INPUT: Report pIC50 for COc1cccc2cc(C(=O)/C=C/c3cc[n+](Cc4ccc(C)cc4)cc3)c(=O)oc12.[Cl-] tested on Acetylcholinesterase (Electrophorus electricus).
OUTPUT: 5.44

INPUT: Entry COc1cccc2cc(C(=O)/C=C/c3cc[n+](Cc4ccccc4F)cc3)c(=O)oc12.[Br-] , system Acetylcholinesterase (Electrophorus electricus): what pIC50 was measured?
OUTPUT: 7.59

INPUT: API: value(readout= pIC50, system= Acetylcholinesterase (Electrophorus electricus), query= COc1cccc2cc(C(=O)/C=C/c3cc[n+](Cc4c(F)cccc4[N+](=O)[O-])cc3)c(=O)oc12.[Cl-] )
OUTPUT: 6.48

----------
Test: Selectivity ratio of IC50 for equine serum BuChE to IC50 for electric eel AChE
measure: Ratio IC50
No unit in the answer, only the number.

INPUT: Item O=C(/C=C/c1cc[n+](Cc2ccc(F)cc2)cc1)c1cc2cc(Br)ccc2oc1=O.[Cl-] has what recorded Ratio IC50?
OUTPUT: 1070

INPUT: I am curious: what Ratio IC50 value has been reported for COc1cccc2cc(C(=O)/C=C/c3cc[n+](Cc4c(F)cccc4[N+](=O)[O-])cc3)c(=O)oc12.[Cl-] ?
OUTPUT: 2.1

INPUT: Data request, read-out Ratio IC50, for COc1cccc2cc(C(=O)/C=C/c3cc[n+](Cc4ccccc4F)cc3)c(=O)oc12.[Br-]
OUTPUT: 12.6

INPUT: Entry COc1cccc2cc(C(=O)/C=C/c3cc[n+](Cc4ccc(F)cc4)cc3)c(=O)oc12.[Cl-] : reported Ratio IC50 = ?
OUTPUT: 1.97

INPUT: // lookup Ratio IC50 for COc1cccc2cc(C(=O)/C=C/c3cc[n+](Cc4ccccc4C)cc3)c(=O)oc12.[Cl-]
OUTPUT: 2140

----------
Molecular target: Cholinesterase (Equus caballus, UniProt P81908)
Sequence (P81908 whole entry): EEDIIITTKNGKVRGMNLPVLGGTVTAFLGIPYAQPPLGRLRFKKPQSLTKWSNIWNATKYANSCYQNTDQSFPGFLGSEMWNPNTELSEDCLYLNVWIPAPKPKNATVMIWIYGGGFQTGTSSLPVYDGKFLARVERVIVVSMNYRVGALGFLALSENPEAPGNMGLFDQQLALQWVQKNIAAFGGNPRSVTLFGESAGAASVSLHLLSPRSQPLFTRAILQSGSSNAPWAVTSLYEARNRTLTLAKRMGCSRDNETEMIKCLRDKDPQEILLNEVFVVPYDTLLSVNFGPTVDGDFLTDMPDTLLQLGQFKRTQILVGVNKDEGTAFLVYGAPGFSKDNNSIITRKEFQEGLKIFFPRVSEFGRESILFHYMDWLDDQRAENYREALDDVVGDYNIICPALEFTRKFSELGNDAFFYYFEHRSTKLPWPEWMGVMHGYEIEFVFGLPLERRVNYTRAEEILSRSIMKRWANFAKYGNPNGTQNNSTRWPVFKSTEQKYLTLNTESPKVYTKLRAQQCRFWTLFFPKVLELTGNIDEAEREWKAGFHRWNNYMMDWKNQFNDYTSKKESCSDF
Experiment: Inhibition of equine serum BuChE using acetylthiocholine iodide as substrate by Ellman's method
Give pIC50 for every item shown.
Scale explanation: pIC50 corresponds to minus log10 of a concentration expressed in moles per litre.

INPUT: Fill in the blank: the reported pIC50 of COc1cccc2cc(C(=O)/C=C/c3cc[n+](Cc4ccccc4C)cc3)c(=O)oc12.[Cl-] is ____.
OUTPUT: 6.47

INPUT: Return reported pIC50; argument: COc1ccc(C[n+]2ccc(/C=C/C(=O)c3cc4cccc(OC)c4oc3=O)cc2)cc1.[Cl-]
OUTPUT: 6.01

INPUT: What value of pIC50 has been reported for the following molecule? O=C(/C=C/c1cc[n+](Cc2ccccc2F)cc1)c1cc2ccccc2oc1=O.[Cl-]
OUTPUT: 6.07

INPUT: What measured pIC50 goes with O=C(/C=C/c1cc[n+](Cc2ccccc2F)cc1)c1cc2cc(Br)ccc2oc1=O.[Cl-] ?
OUTPUT: 6.31

INPUT: What value of pIC50 has been reported for the following molecule? O=C(/C=C/c1cc[n+](Cc2ccc(F)cc2)cc1)c1cc2ccccc2oc1=O.[Cl-]
OUTPUT: 6.04

INPUT: Reported pIC50 for COc1cccc2cc(C(=O)/C=C/c3cc[n+](Cc4cccc(C#N)c4)cc3)c(=O)oc12.[Br-] : what is it?
OUTPUT: 6.00

INPUT: Look at this molecule and give its reported pIC50. COc1cccc2cc(C(=O)/C=C/c3cc[n+](Cc4c(F)cccc4[N+](=O)[O-])cc3)c(=O)oc12.[Cl-]
OUTPUT: 6.16

INPUT: Tell me the measured pIC50 of COc1cccc2cc(C(=O)/C=C/c3cc[n+](Cc4ccc(F)cc4)cc3)c(=O)oc12.[Cl-] , please.
OUTPUT: 6.03

INPUT: GET /values?readout=pIC50&item= COc1cccc2cc(C(=O)/C=C/c3cc[n+](Cc4ccccc4Cl)cc3)c(=O)oc12.[Cl-]
OUTPUT: 6.90
